Quick list: CC50 at 120 h per entry.
# Assay Info: Cytotoxicity of compounds (Celltiter-Glo cell viability)
# Assay type: cell-based
# Conditions: hamster; BHK-21 cells, 120 h incubation; read-out: CC50 (50% cytotoxicity concentration)
Experimental Endpoint: CC50 at 120 h (µM)

• CCCCCCN(CCCCCC)C(=O)Cc1c(-c2ccc(F)cc2)[nH]c2ccccc12 = 124
• O=C(Nc1ccc([N+](=O)[O-])cc1Cl)c1cc(Cl)ccc1O [niclosamide] = 43.3

---

# Tested on: JEV (P3 strain)
# Assay Info: CPE-based EC50 assay, JEV-infected BHK-21 cells
# Assay type: cell-based, Japanese encephalitis virus
# Conditions: Japanese encephalitis virus, BHK-21, 120 h
Experimental Endpoint: EC50

- O=C(Nc1ccc([N+](=O)[O-])cc1Cl)c1cc(Cl)ccc1O [niclosamide]: 5.8 µM
- COCCOC(=O)C1=C(C)NC(C)=C(C(=O)OC/C=C/c2ccccc2)C1c1cccc([N+](=O)[O-])c1 (stereo not drawn): 6.52 µM
- CCCCCCN(CCCCCC)C(=O)Cc1c(-c2ccc(F)cc2)[nH]c2ccccc12: 3.21 µM
